Form field: % inhibition apPOL 180' (one value per entry).
# Tested On: P. falciparum apicoplast DNA polymerase (Pf-apPOL) (Plasmodium falciparum, UniProt Q8ILY1)
# Sequence (Q8ILY1 entry or part of it): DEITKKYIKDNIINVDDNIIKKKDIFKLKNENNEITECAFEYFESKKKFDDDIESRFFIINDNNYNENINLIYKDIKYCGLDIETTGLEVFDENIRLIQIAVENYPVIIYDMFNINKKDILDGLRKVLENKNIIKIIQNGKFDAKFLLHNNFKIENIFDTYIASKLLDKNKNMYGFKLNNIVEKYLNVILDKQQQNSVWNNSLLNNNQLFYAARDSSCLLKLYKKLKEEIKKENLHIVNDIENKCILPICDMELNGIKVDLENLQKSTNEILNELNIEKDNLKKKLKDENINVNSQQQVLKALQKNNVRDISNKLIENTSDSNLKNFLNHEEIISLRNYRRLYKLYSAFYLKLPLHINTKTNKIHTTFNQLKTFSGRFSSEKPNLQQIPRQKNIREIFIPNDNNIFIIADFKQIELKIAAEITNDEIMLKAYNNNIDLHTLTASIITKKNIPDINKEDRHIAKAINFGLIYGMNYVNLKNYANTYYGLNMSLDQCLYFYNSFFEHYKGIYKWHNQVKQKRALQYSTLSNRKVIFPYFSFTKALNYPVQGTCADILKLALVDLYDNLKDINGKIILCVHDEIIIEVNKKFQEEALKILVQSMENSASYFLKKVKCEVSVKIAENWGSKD
# Experiment Description: Fluorescence-based high-throughput DNA polymerase assay (molecular beacon), primary screen and dose-response;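 also: test concentration in µM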
# Assay type: biochemical
# Condition Label: DRC-1; 180'; concentration 5
// units = %; emit number, no label

Before answering, review these 10 worked examples.
• Cc1cc(C)cc(-n2nc3c(c2NC(=O)c2ccco2)CSC3)c1 = 4.111
• CCN1C(=O)C(=Cc2cccc(OC)c2O)SC1=S = 11.9919
• CC(=O)Nc1cc(C(=O)NC(C)C)c2ccc(C)nc2c1 = -3.035
• O=C(O)C(=O)Nc1nc(-c2ccc3c(c2)OCCO3)cs1 = 2.14
• COc1ccc(-c2cc3nc4c(c(=O)n3[nH]2)CCN(C(=O)CCc2ccccc2)C4)cc1 = 7.5
• CCCCCCCCCCCC1SCC(C(=O)O)N1C(C)=O (stereo not drawn) = -0.6083
• O=C(O)c1cccc(N2N=C(C(F)(F)F)/C(=C/c3ccc(-c4ccccc4[N+](=O)[O-])o3)C2=O)c1 = 1.454
• O=C1c2ccccc2C(=O)N1Oc1ccc([N+](=O)[O-])c([N+](=O)[O-])c1 = 3.779
• CCOC(=O)C1=C2c3cc(OC)c(OC)cc3CC(C)(C)N2C(=O)C1=O = 8.013
• Cc1ccc(NC(=O)C2CCN(C(=O)c3cc4ccsc4[nH]3)CC2)c(Br)c1 = 12

The compound listed as Cc1cc(C)c(O)c(/N=C/c2cc([N+](=O)[O-])cc(Br)c2O)c1 has a reported % inhibition apPOL 180' of -16.1751

The compound listed as NC(=O)c1cc[n+](CC2=C(C(=O)[O-])N3C(=O)[C@@H](NC(=O)[C@@H](c4ccccc4)S(=O)(=O)[O-])[C@H]3SC2)cc1.[Na+] has a reported % inhibition apPOL 180' of 5.595

The compound listed as CS(=O)(=O)c1cccc(C(=O)Nc2nnc(-c3ccno3)o2)c1 has a reported % inhibition apPOL 180' of -6.316

The compound listed as O=C(Nc1nnc(-c2ccno2)o1)c1ccc2ncsc2c1 has a reported % inhibition apPOL 180' of -8.9419

The compound listed as Cc1nc(/N=N/c2ccc(C(=O)[O-])cc2)c(COP(=O)([O-])[O-])c(C=O)c1O.[Na+].[Na+].[Na+] has a reported % inhibition apPOL 180' of 31.3621

The compound listed as O=[N+]([O-])c1ccc(/C=C/c2ccc3ccccc3n2)o1 has a reported % inhibition apPOL 180' of 20.9702

The compound listed as Cl.NC(CO)C(=O)NNCc1ccc(O)c(O)c1O (stereo not drawn) has a reported % inhibition apPOL 180' of 12.5243

The compound listed as CCOc1ccccc1-c1nc(-c2ccc(=O)[nH]c2)no1 [Molecule 76, CCOc1ccccc1c1onc(n1)c1ccc(=O)[nH]c1] has a reported % inhibition apPOL 180' of -0.1254

Origin of the recorded values: paper PMC9090415
